# Test summary: method code SF, from Hansch, C. & Leo, A. (1987). Log P database [Dataset]. Pomona College Medicinal Chemistry Project.
Property measured: logP
Answers are plain numbers.

Please review the entries below; each comes with its answer.
CC(=O)C(=Cc1ccccc1)C(C)=O 1.59
O=[N+]([O-])c1ccc(/C=C/c2cccc(CO)n2)o1 1.37
CCOC(=O)CC(=O)C=Cc1ccccc1C 2.66

Go through the list and state logP for each entry.
1. Cc1cccc(C=C(C(N)=O)C(N)=O)c1
2. NC(=O)Nc1cnc2ccccc2n1
3. CCOC(=O)C(=Cc1ccc(OC)c(OC)c1)C(=O)OCC
4. CCOC(=O)c1ccccn1

Output:
[0.4, 1.3, 2.89, 0.88]
